Where do these numbers come from? They come from patent US20240217946A1.

test: Pharmacokinetics and absolute bioavailability in rats (LC-MS/MS); assay type: in vivo; conditions: male, SD, rat, plasma, oral, 12.5 mg/kg, single intragastric 12.5 mg/kg, 8 h, read-out: Plasma concentration, Mean
Observed Property: concentration at 8 h (ng/mL)
Hi! Could you send only the number? It should be in ng/mL, unit omitted.

Reported concentration at 8 h ( NC(=O)/C=C/c1cc2c(c(C(F)(F)F)c1)OCO2 [Compound M2] ) = 2.07

* * *

test: Pharmacokinetics and absolute bioavailability in rats (LC-MS/MS); assay type: in vivo; settings: male, SD, rat, plasma, iv, 2.5 mg/kg, single intravenous 2.5 mg/kg, 3 h
# concentration at 3 h values compiled below
// note: answer is a bare numeric in ng/mL

INSERT INTO measurements (molecular_string, unit, recorded_number) VALUES
  ('NC(=O)/C=C/c1cc2c(c(C(F)(F)F)c1)OCO2', 'ng/mL', 3.21);

Could you now look at the following molecule, please?
The reported concentration at 3 h of the molecule CC(C)CNC(=O)/C=C/c1cc2c(c(C(F)(F)F)c1)OCO2 was 6.9

* * *

experiment: Pharmacokinetics and absolute bioavailability in rats (LC-MS/MS); format: in vivo; settings: male, SD, plasma, oral; rat, absolute bioavailability, intragastric 12.5 mg/kg vs intravenous 2.5 mg/kg; read-out: F (bioavailability, %)
Observed Property: bioavailability (%)
Record the value in %, omitting the unit from your answer.

INSERT INTO measurements (compound, observed_property, recorded_number) VALUES
  ('NC(=O)/C=C/c1cc2c(c(C(F)(F)F)c1)OCO2 [Compound M2]', 'bioavailability', 40.8);

Now consider a different compound.
// bioavailability lookup, compound = CC(C)CNC(=O)/C=C/c1cc2c(c(C(F)(F)F)c1)OCO2 [Compound I-5] , result: 24.1
